The origin of these recorded values is the supplement of paper PMC9262897.

Exercise: state measured growth for each of the compounds provided.
system: E. coli TESEC Mtb Alr; assay: growth (OD600 after 10 h); higher = more growth (less inhibition); details: arabinose 10000 nM; compound 0.1 mM; raw OD600 reference: median of DMSO wells 0.264, cell-free background 0.041
Where a name gives a salt, the structure may show the parent alone.
Answers are plain numbers.

CC(C)OC(=O)CCC/C=C\C[C@@H]1[C@@H](CC[C@@H](O)CCc2ccccc2)[C@H](O)C[C@@H]1O [Latanoprost] ... 0.0396
C[C@]12CCC(=O)C=C1CC[C@@H]1[C@@H]2[C@@H](O)C[C@@]2(C)[C@H]1CC[C@]2(O)C(=O)CO [Hydrocortisone base] ... 0.253
COc1ccc(-c2cc(=O)c3c(O)cc(O[C@@H]4O[C@H](CO[C@@H]5O[C@@H](C)[C@H](O)[C@@H](O)[C@H]5O)[C@@H](O)[C@H](O)[C@H]4O)cc3o2)cc1O [Diosmin] ... 0.277
COCCc1ccc(OCC(O)CNC(C)C)cc1 (racemic) [Metoprolol-(+,-) (+)-tartrate salt] ... 0.266
CN[C@@H]1[C@H](O[C@H]2[C@H](O[C@H]3[C@H](O)[C@@H](O)[C@H](N=C(N)N)[C@@H](O)[C@@H]3N=C(N)N)O[C@@H](C)[C@]2(O)C=O)O[C@@H](CO)[C@H](O)[C@H]1O [Streptomycin sulfate] ... 0.0396

Continue with the next compound.
(Q) growth for NC(=O)c1cccnc1 [Nicotinamide] ?
(A) 0.302

###

system: E. coli TESEC Alr+ wild-type control; assay: growth (OD600 after 10 h); higher = more growth (less inhibition); details: compound 0.1 mM; raw OD600 reference: median of DMSO wells 0.241, cell-free background 0.041
Where a name gives a salt, the structure may show the parent alone.
PROPERTY_LABEL: growth
Answers are plain numbers.

NCCNCCNCCNCCN [Tetraethylenepentamine pentahydrochloride] ... 0.273
CC1CNc2c(cccc2S(=O)(=O)N[C@@H](CCCNC(=N)N)C(=O)N2CC[C@@H](C)C[C@@H]2C(=O)O)C1 (some centres not stated) [Argatroban] ... 0.211
CCOC(=O)O[C@]1(C(=O)COC(=O)CC)CC[C@H]2[C@@H]3CCC4=CC(=O)C=C[C@]4(C)[C@H]3[C@@H](O)C[C@@]21C [Prednicarbate] ... 0.201
O=C(COc1ccc(Cl)cc1)N1CCN(Cc2ccc3c(c2)OCO3)CC1 [Fipexide hydrochloride] ... 0.13
Nc1ccc(C(=O)NCC(=O)O)cc1 [Aminohippuric acid] ... 0.246
CN[C@@H]1[C@@H](O[C@H]2O[C@H](CO)[C@@H](N)[C@H](O)[C@H]2O)OC2C[C@@H](N)[C@@H](O[C@H]3[C@H](O)[C@@H](O)[C@H](N)C[C@@H]3N)OC2[C@@H]1O (some centres not stated) [Apramycin] ... 0.0408

(Q) growth for Cn1c(=O)c2c(ncn2CC(O)CO)n(C)c1=O (configuration not stated) [Diprophylline] ?
(A) 0.253

###

Exercise: state measured growth for each of the molecules provided.
system: E. coli TESEC Mtb DapB; assay: growth (OD600 after 10 h); higher = more growth (less inhibition); conditions: arabinose induction (level): High; compound 0.1 mM; raw OD600 reference: median of DMSO wells […], cell-free background 0.041
Counter-ions that a name gives are not always drawn.
Answers are plain numbers.

Solved cases (3 shown):
Nc1c2c(nc3ccccc13)CCCC2 [Tacrine hydrochloride] ... 0.222
CC(=O)O[C@H]1C[C@@H]2CC[C@@H]3[C@H](CC[C@@]4(C)[C@H]3C[C@H]([N+]3(C)CCCCC3)[C@@H]4OC(C)=O)[C@@]2(C)C[C@@H]1N1CCCCC1 [Vecuronium bromide] ... 0.172
c1ccc(CNc2ncnc3nc[nH]c23)cc1 ... 0.169

(Q) growth for NS(=O)(=O)c1cc2c(cc1Cl)NC(C(Cl)Cl)NS2(=O)=O (centres undefined) [Trichlormethiazide] ?
(A) 0.191
